Listing: melting point of selected compounds

Known melting point results, listed for orientation:
O=Cc1ccc(OCc2ccsc2)cc1OC(C(=O)O)c1ccccc1 (racemic)	172 to 174 °C
Cc1c(NC(=O)c2ccc(OCC3CC3)cc2)ccc2cc(CNCC3CCOCC3)[nH]c12	167 to 168 °C
Cc1sc(C(=O)OCc2ccccc2)cc1NC(=O)Cc1ccccc1	173 to 174 °C
CSC1(CC(=O)O)CCC1	43 to 46 °C

State its melting point: CCC(CC)C(NS(=O)(=O)c1ccc(Cl)s1)c1ncnn1Cc1ccc(C)cc1 (stereo not given) 103 to 104 °C

State its melting point: `CC(C)N(C(=O)COc1c(F)cc(-c2ccc(C(=O)O)cc2)cc1[N+](=O)[O-])C(C)C` 202 °C

State its melting point: COC(=O)C(C)(Cc1c[nH]c2ccc(OC)cc12)[N+](=O)[O-] (racemic) 109 to 110 °C

Where do the numbers come from? From a melting point compilation (Tetko et al.; mined from patent text by program, amines drawn as free bases though some values may be those of a salt).
